IC50 values, listed per item
# tgt: NAMPT (Homo sapiens, UniProt P43490)
# Construct: His tag; host or cells: E. coli
# Sequence (P43490 whole entry): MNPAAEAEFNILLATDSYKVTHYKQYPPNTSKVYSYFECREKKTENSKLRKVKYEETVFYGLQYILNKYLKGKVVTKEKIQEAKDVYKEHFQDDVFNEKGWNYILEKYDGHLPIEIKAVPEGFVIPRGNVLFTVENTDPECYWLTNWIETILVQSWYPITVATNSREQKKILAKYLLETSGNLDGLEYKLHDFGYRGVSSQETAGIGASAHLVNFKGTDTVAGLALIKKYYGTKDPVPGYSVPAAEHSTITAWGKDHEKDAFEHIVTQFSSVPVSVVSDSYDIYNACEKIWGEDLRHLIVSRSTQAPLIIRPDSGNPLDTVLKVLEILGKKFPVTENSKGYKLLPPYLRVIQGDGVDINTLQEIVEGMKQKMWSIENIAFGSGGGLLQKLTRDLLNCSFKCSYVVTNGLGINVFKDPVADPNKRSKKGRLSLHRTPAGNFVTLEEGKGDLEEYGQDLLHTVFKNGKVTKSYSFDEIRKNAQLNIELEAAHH
# assay_method_text: Biochemical inhibition assay: NAMPT enzymatic reaction, NMN quantified by mass spectrometry
# conditions: NAMPT enzymatic reaction; read-out: Biochem IC50
readout_name: IC50 (nM)

* Cc1ccc(S(=O)(=O)c2ccc(CNC(=O)c3cnc4[nH]ncc4c3)cc2)cc1C | 5.1
* COc1ccc(S(=O)(=O)c2ccc(CNC(=O)c3cnc4[nH]ncc4c3)cc2)c(Cl)c1 | 51.6
* Cc1cc(Cl)ccc1S(=O)(=O)c1ccc(CNC(=O)c2cc3ccncc3o2)cc1 | 24.9
* O=C(NCc1ccc(S(=O)(=O)c2cncc3ccccc23)cc1)c1cc2ccncc2s1 | 3
* CC(=O)c1ccccc1S(=O)(=O)c1ccc(CNC(=O)c2cc3ccncc3s2)cc1 | 1
